# Test system: Balb/c splenocytes (resting lymphocytes)
# assay: Lymphocyte viability (LcV) assay
# Format: cell-based, murine
# particulars: unstimulated Balb/c splenocytes, MTT
Numbered stars: 1 amine (or outer) side, 2 acyl side, 3 side chain; on linkers, the order of the positions; unused ones are H or OH. Bridge positions count the residues as written; N and C are the ends. Square brackets hold non-standard residues; d marks the D form. Peptide text beside a SMILES is read from it. * marks the point of attachment. X1 = CC[C@H](C)[C@@H](N[*:1])[C@@H](O)CC(=O)O[C@H](C(=O)[C@H](C)C(=O)[*:2])C(C)C; NMeY = CN[C@@H](Cc1ccc(O)cc1)C(=O)O; dNMeL = CN[C@H](CC(C)C)C(=O)O; Pentanoyl = CCCCC(=O)*
endpoint.name: cytoxicity to lymphocytes LcV, LC50 (µM)
Just the number please, in µM, no unit attached.

Query: # query: cytoxicity to lymphocytes LcV, LC50 of entry CCCCC(=O)N(C)[C@H](CC(C)C)C(=O)N[C@@H]1C(=O)N[C@H]([C@@H](C)CC)[C@@H](O)CC(=O)O[C@@H](C(C)C)C(=O)[C@H](C)C(=O)N[C@@H](CC(C)C)C(=O)N2CCC[C@H]2C(=O)N(C)[C@@H](Cc2ccc(OC)cc2)C(=O)O[C@@H]1C [Compound 21, N^α -Pentanoyldidemnin A] (Pentanoyl-[dNMeL]T[X1]LP[NMeY](Me); ester 2-C)
Reply: 9.70

* * *

Below: a set of entries, each annotated with reported cytotoxicity to lymphocytes LbV, LC50.
# Test system: concanavalin A-induced lymphoblasts (Con A splenocytes)
# assay: Lymphoblast viability (LbV) assay
# particulars: Con A-stimulated splenocytes (lymphoblasts), MTT
Numbered stars: 1 amine (or outer) side, 2 acyl side, 3 side chain; on linkers, the order of the positions; unused ones are H or OH. Bridge positions count the residues as written; N and C are the ends. Square brackets hold non-standard residues; d marks the D form. Peptide text beside a SMILES is read from it. * marks the point of attachment. X1 = CC[C@H](C)[C@@H](N[*:1])[C@@H](O)CC(=O)O[C@H](C(=O)[C@H](C)C(=O)[*:2])C(C)C; X3 = CC[C@H](C)[C@H](N[*:1])[C@@H](O)CC(=O)O[C@H](C(=O)[C@H](C)C(=O)[*:2])C(C)C; NMeY = CN[C@@H](Cc1ccc(O)cc1)C(=O)O; dNMeL = CN[C@H](CC(C)C)C(=O)O; pGlu = O=C1CC[C@@H](C(=O)O)N1; Cbz = O=C(OCc1ccccc1)*; Lac = C[C@H](O)C(=O)O
Just the number please, in nM, no unit attached.

Query: GET /values?readout=cytotoxicity to lymphocytes LbV, LC50&system=concanavalin A-induced lymphoblasts (Con A splenocytes)&item= CC[C@H](C)[C@H]1NC(=O)[C@@H](NC(=O)[C@@H](CC(C)C)N(C)C(=O)[C@H]2CCCN2)[C@@H](C)OC(=O)[C@H](Cc2ccc(OC)cc2)N(C)C(=O)[C@@H]2CCCN2C(=O)[C@H](CC(C)C)NC(=O)[C@@H](C)C(=O)[C@H](C(C)C)OC(=O)C[C@@H]1O [Compound 29, N^α -(D-Pro)-Didemnin A] (H-[dP][dNMeL]T[X1]LP[NMeY](Me); ester 3-C)
Reply: 22

Query: GET /values?readout=cytotoxicity to lymphocytes LbV, LC50&system=concanavalin A-induced lymphoblasts (Con A splenocytes)&item= CC[C@H](C)[C@@H]1NC(=O)[C@@H](NC(=O)[C@@H](CC(C)C)N(C)C(=O)OCc2ccccc2)[C@@H](C)OC(=O)[C@H](Cc2ccc(OC)cc2)N(C)C(=O)[C@@H]2CCCN2C(=O)[C@H](CC(C)C)NC(=O)[C@@H](C)C(=O)[C@H](C(C)C)OC(=O)C[C@@H]1O [Compound 6, Z-[(3S,4S,5S)-Ist^2]Didemnin A] (Cbz-[dNMeL]T[X3]LP[NMeY](Me); ester 2-C)
Reply: 2600

Query: GET /values?readout=cytotoxicity to lymphocytes LbV, LC50&system=concanavalin A-induced lymphoblasts (Con A splenocytes)&item= CC[C@H](C)[C@H]1NC(=O)[C@@H](NC(=O)[C@@H](CC(C)C)N(C)C(=O)[C@@H]2CCCN2C(=O)[C@H](C)OC(=O)[C@@H]2CCC(=O)N2)[C@@H](C)OC(=O)[C@H](Cc2ccc(OC)cc2)N(C)C(=O)[C@@H]2CCCN2C(=O)[C@H](CC(C)C)NC(=O)[C@@H](C)C(=O)[C@H](C(C)C)OC(=O)C[C@@H]1O [Compound 37, O-Pyroglutamyldidemnin B] ([pGlu][Lac]P[dNMeL]T[X1]LP[NMeY](Me); ester 5-C)
Reply: 0.079

* * *

# System: Balb/c splenocytes (resting lymphocytes)
# assay: Lymphocyte viability (LcV) assay
# Assay type: cell-based, murine
# particulars: unstimulated Balb/c splenocytes, MTT; highest concentration 10 μg/mL
Numbered stars: 1 amine (or outer) side, 2 acyl side, 3 side chain; on linkers, the order of the positions; unused ones are H or OH. Bridge positions count the residues as written; N and C are the ends. Square brackets hold non-standard residues; d marks the D form. Peptide text beside a SMILES is read from it. * marks the point of attachment. X1 = CC[C@H](C)[C@@H](N[*:1])[C@@H](O)CC(=O)O[C@H](C(=O)[C@H](C)C(=O)[*:2])C(C)C; NMeY = CN[C@@H](Cc1ccc(O)cc1)C(=O)O; dNMeL = CN[C@H](CC(C)C)C(=O)O; pGlu = O=C1CC[C@@H](C(=O)O)N1; Pentanoyl = CCCCC(=O)*; Lac = C[C@H](O)C(=O)O
Below: a set of entries, each annotated with reported cytoxicity to lymphocytes LcV, LC50.

Completed entries (count: 2):
- compound: "CC[C@H](C)[C@H]1NC(=O)[C@@H](NC(=O)[C@@H](CC(C)C)N(C)C(=O)[C@@H]2CCCN2C(=O)[C@H](C)OC(=O)[C@@H]2CCC(=O)N2)[C@@H](C)OC(=O)[C@H](Cc2ccc(OC)cc2)N(C)C(=O)[C@@H]2CCCN2C(=O)[C@H](CC(C)C)NC(=O)[C@@H](C)C(=O)[C@H](C(C)C)OC(=O)C[C@@H]1O [Compound 37, O-Pyroglutamyldidemnin B] ([pGlu][Lac]P[dNMeL]T[X1]LP[NMeY](Me); ester 5-C)"
  cytoxicity to lymphocytes LcV, LC50: "> 10 µg/mL"
- compound: "CCCCC(=O)N(C)[C@H](CC(C)C)C(=O)N[C@@H]1C(=O)N[C@H]([C@@H](C)CC)[C@@H](O)CC(=O)O[C@@H](C(C)C)C(=O)[C@H](C)C(=O)N[C@@H](CC(C)C)C(=O)N2CCC[C@H]2C(=O)N(C)[C@@H](Cc2ccc(OC)cc2)C(=O)O[C@@H]1C [Compound 21, N^α -Pentanoyldidemnin A] (Pentanoyl-[dNMeL]T[X1]LP[NMeY](Me); ester 2-C)"
  cytoxicity to lymphocytes LcV, LC50: "> 10 µg/mL"

Proceed to the following item.
Query: # query: cytoxicity to lymphocytes LcV, LC50 of entry CC[C@H](C)[C@H]1NC(=O)[C@@H](NC(=O)[C@@H](CC(C)C)NC)[C@@H](C)OC(=O)[C@H](Cc2ccc(OC)cc2)N(C)C(=O)[C@@H]2CCCN2C(=O)[C@H](CC(C)C)NC(=O)[C@@H](C)C(=O)[C@H](C(C)C)OC(=O)C[C@@H]1OC(C)=O [Compound 7, O-Acetyldidemnin A]
Reply: > 10 µg/mL

* * *

Below: a set of entries, each annotated with reported IC50.
# Test system: murine splenocytes (Balb/c and C57B1/6)
# assay: Two-way mixed lymphocyte reaction (MLR) assay;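 also: proliferation read as tritiated thymidine incorporation into newly made DNA after an overnight pulse, expressed as percent of control activity, IC50 interpolated per compound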
# particulars: read-out: two-way mixed lymphocyte reaction (MLR) suppression MLR, IC50; Balb/c + C57B1/6 splenocytes, 96 h, [3H]thymidine
Numbered stars: 1 amine (or outer) side, 2 acyl side, 3 side chain; on linkers, the order of the positions; unused ones are H or OH. Bridge positions count the residues as written; N and C are the ends. Square brackets hold non-standard residues; d marks the D form. Peptide text beside a SMILES is read from it. X4 = CC[C@H](C)[C@@H](N[*:1])[C@@H](O)CC(=O)O[C@@H](C(C)C)[C@H](O)[C@H](C)C(=O)[*:2]; X1 = CC[C@H](C)[C@@H](N[*:1])[C@@H](O)CC(=O)O[C@H](C(=O)[C@H](C)C(=O)[*:2])C(C)C; NMeY = CN[C@@H](Cc1ccc(O)cc1)C(=O)O; dNMeL = CN[C@H](CC(C)C)C(=O)O
Just the number please, in nM, no unit attached.

- compound: "CC[C@H](C)[C@H]1NC(=O)[C@@H](NC(=O)[C@@H](CC(C)C)NC)[C@@H](C)OC(=O)[C@H](Cc2ccc(OC)cc2)N(C)C(=O)[C@@H]2CCCN2C(=O)[C@H](CC(C)C)NC(=O)[C@@H](C)[C@@H](O)[C@H](C(C)C)OC(=O)C[C@@H]1O [Compound 10, [(2S,3R,4S)-H2 Hip^3]Didemnin A] (H-[dNMeL]T[X4]LP[NMeY](Me); ester 2-C)"
  experimental.system: "murine splenocytes (Balb/c and C57B1/6)"
  units.text: "nM"
  IC50: 30.5
- compound: "CC[C@H](C)[C@H]1NC(=O)[C@@H](NC(=O)[C@@H](CC(C)C)N(C)C(=O)[C@@H]2CCCN2C(=O)[C@H](C)O)[C@@H](C)OC(=O)[C@H](CC2CCCCC2)N(C)C(=O)[C@@H]2CCCN2C(=O)[C@H](CC(C)C)NC(=O)[C@@H](C)C(=O)[C@H](C(C)C)OC(=O)C[C@@H]1O [Compound 16, [H6 -N-MePhe^6]Didemnin B]"
  experimental.system: "murine splenocytes (Balb/c and C57B1/6)"
  units.text: "nM"
  IC50: 0.52

Proceed to the following item.
Query: # query: IC50 of entry CC[C@H](C)[C@H]1NC(=O)[C@@H](NC(=O)[C@@H](CC(C)C)N(C)C(=O)[C@H]2CCCN2)[C@@H](C)OC(=O)[C@H](Cc2ccc(OC)cc2)N(C)C(=O)[C@@H]2CCCN2C(=O)[C@H](CC(C)C)NC(=O)[C@@H](C)C(=O)[C@H](C(C)C)OC(=O)C[C@@H]1O [Compound 29, N^α -(D-Pro)-Didemnin A] (H-[dP][dNMeL]T[X1]LP[NMeY](Me); ester 3-C)
Reply: 11.7
